test: Solubility of 150 mg compound in aqueous buffer at pH 7.3 and 37 degree Celsius after 4.0 hr; assay type: physicochemical; conditions: read-out: Concentration
Value kind: solubility at 4 h (mg/mL)

Compound	Quantitative readout
CC(=O)O[C@H]1C(n2cnc3c(N)ncnc32)O[C@H](CO)[C@@H]1O (stereo partly specified)	93.6

====

The reader will find reported Partition coefficient values listed item by item below.
assay: Compound was evaluated for the octanol/water partition coefficient at 37 degree Celsius at 4.5 hour; format: physicochemical

Compound	Partition coefficient
CCCC(=O)O[C@H]1C(n2cnc3c(N)ncnc32)O[C@H](CO)[C@@H]1O (some centres undefined)	0.969
CC(=O)O[C@H]1C(n2cnc3c(N)ncnc32)O[C@H](CO)[C@@H]1O (some centres undefined)	0.118
CCCCC(=O)O[C@H]1C(n2cnc3c(N)ncnc32)O[C@H](CO)[C@@H]1O (some centres undefined)	2.2
CCC(=O)O[C@H]1C(n2cnc3c(N)ncnc32)O[C@H](CO)[C@@H]1O (some centres undefined)	0.318
